Source: ChEMBL document CHEMBL1201862

Listing: GI50 of selected compounds
- Test system: SK-MEL-5
- RUN DESCRIPTION: NCI tumour cell line growth inhibition, 48 h
Activity calls are given as the source filed them. No stated cut-off is given here; in the data, active = GI50 up to about 1.1 µM and inactive = higher.

Examples with their reported GI50 follow.
Using known records, supply GI50 for O=C1OC(CCCN2CCCCC2)(c2ccccc2)CC12CCCC2 (stereo unspecified)
18.7 µM (inactive)

For N#Cc1c(=O)c2ccccc2n2ccccc12 , write its GI50.
> 100 µM (inactive)

Provide measured GI50 value, entry: c1ccc(SC2(Sc3ccccc3)CCCC2)cc1
> 100 µM (inactive)

Give recorded GI50. COc1cccc2[s+]snc12
24.3 µM (inactive)

For the compound O=C(OCC1CCCN2CCCCC12)c1ccncc1 (stereo unspecified) , report GI50.
> 100 µM (inactive)

Continuing:
Give recorded GI50. O=C(O)c1ccccc1CC1Cc2ccccc2C1
> 100 µM (inactive)

Give the reported value of GI50 for this record: O=C1NN(c2ccccc2)C(=O)C2C3c4ccccc4C(c4ccccc43)C12 (stereo unspecified)
> 100 µM (inactive)

For O=C1c2c(F)c(F)c(F)c(F)c2SC2=NCCN12 , write its GI50.
14.8 µM (inactive)

Check the records and state GI50 for CC(=O)O[C@H]1C(=O)[C@@]2(C)[C@H]([C@H](OC(=O)c3cccc(C(F)(F)F)c3)[C@]3(O)C[C@H](OC(=O)[C@H](O)[C@@H](NC(=O)c4ccccc4)c4ccccc4)C(C)=C1C3(C)C)[C@]1(OC(C)=O)CO[C@@H]1C[C@@H]2O
< 0.0025 µM (active)

Give GI50 for CC1=NN(c2cccc(Cl)c2)C2(C1=Cc1ccc(N(C)C)cc1)C(Cl)C(=O)N2c1nc2ccccc2s1 (stereo unspecified)
49.1 µM (inactive)

Return GI50 for the following compound: CC(C)NC(=O)OCc1c(COC(=O)NC(C)C)c(-c2ccc[n+](COC(=O)Cc3ccccc3)c2)n2c1CCC2
33.4 µM (inactive)

Determine from records and report GI50 for Cc1ccc(Cl)c2c(=O)c3ccc(N)cc3sc12
17.5 µM (inactive)

----------
Catalogue of GI50 readings, one per entry.
- Test system: COLO 205
- RUN DESCRIPTION: NCI tumour cell line growth inhibition, 48 h
Activity calls are given as the source filed them. No stated cut-off is given here; in the data, active = GI50 up to about 1.1 µM and inactive = higher.

Examples with answers:
Please indicate GI50 recorded for CCCCC1C=Cn2c(=O)oc3c(OC(C)C)c(OC(C)C)c(O)c1c32 (stereo not given)
16.3 µM (inactive)

Using known records, supply GI50 for COC(=O)CCc1ccc2c(c1)CC1(C2)Cc2ccc3c(c2C1)CCC3 (stereo not given)
80.4 µM (inactive)

Others:
Please supply the value of reported GI50 for the item c1ccc(Nc2nnc(Cn3ccc4ccccc43)s2)cc1
45.1 µM (inactive)

Consider the compound CCCCCCCCOC(=O)C12Oc3ccc(-c4ccc5c(c4O)C(=O)C4=C(O)CC(C)C(O)C4(C(=O)OCCCCCCCC)O5)c(O)c3C(=O)C1=C(O)CC(C)C2O (stereo not given) and give its recorded GI50.
20.9 µM (inactive)

Assign GI50 to the following record: C=CCc1c(Cl)nc(Cl)nc1Cl
0.195 µM (active)

----------
- System: U-251
- RUN DESCRIPTION: NCI tumour cell line growth inhibition, 48 h
Activity calls are given as the source filed them. Cut-off read from the data, not from the text of the source: active = GI50 up to about 1.1 µM and inactive = higher.
Give one outcome, nothing more. List: active, inactive

Dear all, I need the recorded test outcome for CCOc1ccc(N2C(=O)NC3(c4ccccc4)N(C)C(=O)N(C)C23c2ccccc2)cc1 (stereo not drawn) , thank you.
inactive

What did this assay record as the result for OC1(c2cc3ccccc3s2)CCCCC1 ?
inactive

Next:
Identify the outcome logged in this assay for the molecule shown: CCOC(=O)C(C)c1nc2ccc(C(F)(F)F)cc2[nH]c1=O (stereo not drawn)
inactive

What did the test return for COc1cc2cc3c4cc(OC)c(OC)cc4cc[n+]3cc2cc1OC ?
inactive

Just curious, what result did O=c1cccccc1NCCCCCCCCCNc1cccccc1=O get here?
inactive

Record request — test call for CCO/C=N/NC(=O)CSc1nc2ccc(I)cc2c(=O)n1Cc1ccccc1
inactive

How was O=C(O)Cn1ccc(=O)c2c([N+](=O)[O-])cccc21 classified in this test?
inactive

----------
- System: NCI-H522
- RUN DESCRIPTION: NCI tumour cell line growth inhibition, 48 h
Activity calls are given as the source filed them. No stated cut-off is given here; in the data, active = GI50 up to about 1.1 µM and inactive = higher.
ASSAY READOUT: GI50

Some solved cases for reference:
Quote GI50 with test system NCI-H522 for CCOc1ccc(NC(=O)/C(CC(=O)c2c[n+]([O-])c3ccccc3[n+]2[O-])=N\OCCCc2ccccc2)cc1
> 100 µM (inactive)

Quote GI50 with test system NCI-H522 for C/C(=N\NC(=S)NC(CCC(=O)O)C(=O)O)c1cnccn1 (centres undefined)
> 100 µM (inactive)

Output reported GI50 of the compound CC1=C(/C(C)=N/NS(=O)(=O)c2ccc(C)cc2)Sc2ccccc2N1 on NCI-H522.
46.7 µM (inactive)

Provide GI50, recorded with NCI-H522, of NC(=S)NS(=O)(=O)c1ccc(Cl)cc1
> 100 µM (inactive)

Name the value of GI50 reported for [B].c1ccc([Si](OCCN2CC2)(c2ccccc2)c2ccccc2)cc1 when tested on NCI-H522.
12.9 µM (inactive)

More entries:
Report value only: GI50, NCI-H522, C=C1C(=O)O[C@@H]2C[C@]3(C)CC[C@]4(C)[C@H](CC[C@@H]5[C@@]6(C)CCC(=O)C(C)(C)[C@@H]6CC[C@]54C)[C@H]3[C@H]12 [OCHRACEOLIDE A]
7.33 µM (inactive)

GET GI50 | system: NCI-H522 | item: O=C1NCCN1/N=C/c1c(Cl)n(-c2ccccc2)c2ccccc12
16.1 µM (inactive)

State, for NCI-H522, measured GI50 of the compound listed here: O=C1CCCc2cc3c(cc21)CC1(C3)Cc2cc3c(cc2C1)C(=O)CCC3
0.679 µM (active)

# return GI50 for O=C1NC(=O)C2C(=O)NC(=O)C1C2(c1ccccc1)c1cc[nH]c1 (centres undefined) , test system: NCI-H522
> 100 µM (inactive)

----------
- System: U-251
- RUN DESCRIPTION: NCI tumour cell line growth inhibition, 48 h
The source made the active and inactive calls. No stated cut-off is given here; in the data, active = GI50 up to about 1.1 µM and inactive = higher.
Each entry below carries its recorded GI50.

Worked cases, answers included:
Entry CCOC(=O)C1=C(C)N(c2ccc(OC)cc2)C2(O)C=CC(O)=C3C(=O)c4ccccc4C(=O)C312 (centres undefined) needs its GI50 filled in; supply it.
8.49 µM (inactive)

Recall and state the measured GI50 for O=C(NCc1cccnc1)C(=O)NCc1cccnc1 .
> 100 µM (inactive)

Using the record for CCC/C(=N/NC(=O)C(N)=O)C(CC)C(=O)CCC(=O)N(Cc1ccccc1)Cc1ccccc1 (centres undefined) , state its measured GI50.
> 100 µM (inactive)

Input CCOC(=O)C1C/C(C)=C(/C)SCCCS1 (centres undefined) , output reported GI50.
> 100 µM (inactive)

Determine from records and report GI50 for COC1(OC)N=C(N)C2(C#N)C3(C(=O)N(C(C)C)N=C3C)C12C#N (centres undefined)
> 100 µM (inactive)

***
Give a short answer stating reported GI50 for O=C(N/N=C/c1cc(Br)ccc1O)N/N=C/c1cc(Br)ccc1O .
3.55 µM (inactive)

Give the reported value of GI50 for this record: COc1ccc2[nH]c(CCNC(=O)c3cc([N+](=O)[O-])cc([N+](=O)[O-])c3)cc2c1
14.7 µM (inactive)

Please indicate GI50 recorded for CCOC(=O)NN(C(=O)OCC)C(C(=O)C1=CCCCC1)N(NC(=O)OCC)C(=O)OCC
> 100 µM (inactive)

----------
- Tested on: M19-MEL
- RUN DESCRIPTION: NCI tumour cell line growth inhibition, 48 h
Active and inactive are the calls of the source. Cut-off read from the data, not from the text of the source: active = GI50 up to about 1.1 µM and inactive = higher.
The reply should be one of these categories: active, inactive

Please review the entries below; each comes with its answer.
Hey, what did the test say about CCOC(=O)C1=C(OC(OCC)C(CC)[Se]c2ccccc2)CCC1 (stereo unspecified) ?
inactive

What outcome does the record of this test show for NN1C(=O)C(CCO)S/C1=N/N=C1/SC(CCO)C(=O)N1N (stereo unspecified) ?
inactive

Next molecule, please.
Any idea what this test logged for O=C(O)[C@@H]1OCCOCCO[C@@H](C(=O)O)[C@H](C(=O)O)OCCOCCO[C@H]1C(=O)O ?
inactive

----------
- Tested on: KM12
- RUN DESCRIPTION: NCI tumour cell line growth inhibition, 48 h
Activity calls are given as the source filed them. Cut-off read from the data, not from the text of the source: active = GI50 up to about 1.1 µM and inactive = higher.
Entry note: the call must match one of true for active, false for inactive

Hey, what did the test say about c1cc(-c2ccc(-c3ccc(-c4ccc(-c5ccncc5)o4)cc3)o2)ccn1 ?
false

Hi, do you know how Cc1ccc(Nc2cn(COCc3ccccc3)c(=O)[nH]c2=O)cc1 came out in this test?
false

Look up the recorded call for Nc1nc(Cl)c2nnn(CC3CCC(CO)C3)c2n1 (configuration not stated) in this test.
false

I'd appreciate the recorded outcome for C=C1CC[C@@]2(OC1)OC1C[C@H]3[C@@H]4CC=C5C[C@@H](O)CC(OC6OCC(OC(=O)[C@@H](O)[C@@H](C)CC)C(OC(C)=O)C6OC6OC(C)C(O)C(O)C6O)[C@]5(C)[C@H]4CC[C@]3(C)C1[C@@H]2C (some centres not stated) from this test.
false

I'd appreciate the recorded outcome for CC(=O)O[C@H]1C(=O)[C@@]2(C)[C@H]([C@H](OC(=O)c3cccc(C(F)(F)F)c3)[C@]3(O)C[C@H](OC(=O)[C@H](O)[C@@H](NC(=O)c4ccccc4)c4ccccc4)C(C)=C1C3(C)C)[C@]1(OC(C)=O)CO[C@@H]1C[C@@H]2O from this test.
true

Please let me know the test result on file for O=c1n(-c2ccc(Cl)c(Cl)c2)c(=O)n(-c2ccc(Cl)c(Cl)c2)c(=O)n1-c1ccc(Cl)c(Cl)c1 .
false

Please let me know the test result on file for O=C1C2=C(SCCS2)C(=O)c2ccccc21 .
false

Record lookup: outcome of this test for Cc1ccc(/N=C2/SC(c3ccc(C)cc3)(c3ccc(C)cc3)c3ccccc32)cc1 ?
false

I would be grateful if you could indicate the recorded call for [B].c1ccc([Si](OCCN2CC2)(c2ccccc2)c2ccccc2)cc1 .
false

What did the test return for Nc1nc(Cl)cc(NCC2(CO)CC(OCc3ccccc3)C2)n1 (configuration not stated) ?
false

Test call, this molecule: C[C@H]1CC[C@@]2(OC1)O[C@H]1C[C@H]3[C@@H]4CC[C@@H]5C[C@@H](OC6OC(CO)C(O)C(O)C6OC6OC(CO)C(O)C(O)C6O)CC[C@]5(C)[C@H]4CC[C@]3(C)[C@H]1[C@@H]2C (some centres not stated)
false
